Molecular target: T1, human Claudin18.1 (CLDN18.1), full length, on cells (human, UniProt P56856 1-261)
T1 construct: HEK293-CLDN18.1 cells carry a fusion with green fluorescent protein (ZsGreen); CHO-K1-CLDN18.1 cells carry pcDNA3.1-CLDN18.1; The cell line is named under assay; also called CLDN18.1-FL; HEK293-CLDN18.1 cells
Experiment: cellular ELISA
property: binding result

| binder | observed.value |
| --- | --- |
| 308CHI (antibody, V domains shown, chimeric with the constant region of human IgG1) VH: EVKLVESGGGLVQPGGSLKLSCAASGFGFSDYGMAWVRQAPRKGPEWVAFISNSAYSIYYADTVTGRFTISRENAKNTLYLEMSSLRSEDTAMYYCARLGYGNSFAYWGQGTLVTVSA VL: DIVMTQSPSSLTVTAGEKVTMSCKSSQSLLNSGNQKNYLTWYQQKPGQPPKLLIYWASTRESGVPDRFTGSGSGTDFTLTISSVQAEDLAVYYCQNDYSLPFTFGAGTKLELK | no binding |
| 313CHI (antibody, V domains shown, chimeric with the constant region of human IgG1) VH: EVKLVESGGGLVQPGGSLKLSCAASGFTFSDYGMAWVRQAPRKGPEWVAFISNLAYSIYYADTVTGRFTISRENAKNTLYLEMSSLRSEDTAMYYCARLGRGNSFAYWGQGTLVTVSA VL: DIVMTQSPSSLTVTAGEKVTMSCKSSQSLLNSGNQKNYLTWYQQKPGQPPKLLIYWASTRESGVPDRFTGSGSGTDFTLTISSVQAEDLAVYYCQNNYYYPLTFGAGTKLELK | no binding |

// provenance: patent US20220119517A1
